- ASSAY_REMARKS: Phase 1 single-dose plasma pharmacokinetics in subjects with normal hepatic function, mild or moderate hepatic impairment
- Type: in vivo, human
- CONDITION_SUMMARY: human, plasma, po, 200 mg, Mild Hepatic Impairment; 16 h; 200 mg single oral dose; read-out: Plasma concentration, Arithmetic Mean
RECORDED_METRIC: concentration at 16 h
Please state the number and follow it with the unit.

# input Identify measured concentration at 16 h associated with N#CC1(c2ccc(NC(=O)c3cccnc3NCc3ccncc3)cc2)CCCC1 [Rivoceranib]
# output 54.3 ng/mL

----------
- ASSAY_REMARKS: Phase 1 single-dose plasma pharmacokinetics in subjects with normal hepatic function, mild or moderate hepatic impairment
- Format: in vivo, human
- CONDITION_SUMMARY: human, plasma, po, 200 mg, Normal Hepatic Function; 12 h; 200 mg single oral dose; read-out: Plasma concentration, Arithmetic Mean
RECORDED_METRIC: concentration at 12 h (ng/mL)
# output: bare number, implied unit ng/mL

# input Identify measured concentration at 12 h associated with N#CC1(c2ccc(NC(=O)c3cccnc3NCc3ccncc3)cc2)CCCC1 [Rivoceranib]
# output 67.8

----------
- ASSAY_REMARKS: Phase 1 single-dose plasma pharmacokinetics in subjects with normal hepatic function, mild or moderate hepatic impairment
- Assay type: in vivo, human
- CONDITION_SUMMARY: human, plasma, po, 200 mg, Mild Hepatic Impairment; 16 h; 200 mg single oral dose; read-out: Plasma concentration, Median
RECORDED_METRIC: concentration at 16 h (ng/mL)
# output: bare number, implied unit ng/mL

# input Identify measured concentration at 16 h associated with N#CC1(c2ccc(NC(=O)c3cccnc3NCc3ccncc3)cc2)CCCC1 [Rivoceranib]
# output 39.6

----------
- TARGET_DESC: CYP3A4 (Homo sapiens)
- Sequence (P08684 whole entry): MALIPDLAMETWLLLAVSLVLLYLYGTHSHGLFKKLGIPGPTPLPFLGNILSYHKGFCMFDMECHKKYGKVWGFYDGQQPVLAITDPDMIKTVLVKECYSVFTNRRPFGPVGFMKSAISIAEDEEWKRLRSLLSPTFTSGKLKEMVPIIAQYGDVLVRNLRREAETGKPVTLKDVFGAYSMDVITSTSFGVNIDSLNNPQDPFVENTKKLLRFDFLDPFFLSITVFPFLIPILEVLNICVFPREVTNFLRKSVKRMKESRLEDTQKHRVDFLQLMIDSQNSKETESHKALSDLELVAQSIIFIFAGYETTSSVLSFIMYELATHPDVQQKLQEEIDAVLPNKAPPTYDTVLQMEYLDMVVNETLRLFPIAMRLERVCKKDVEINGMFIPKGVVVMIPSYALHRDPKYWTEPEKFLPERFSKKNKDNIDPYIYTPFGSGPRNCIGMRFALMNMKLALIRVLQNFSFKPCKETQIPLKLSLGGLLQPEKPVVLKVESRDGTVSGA
- ASSAY_REMARKS: In vitro CYP phenotyping and metabolism study, recombinant CYP3A4
- Format: in vitro ADME
- CONDITION_SUMMARY: human; Recombinant CYP3A4; 5 μM; read-out: t½
RECORDED_METRIC: half-life at 5 µM

# input Identify measured half-life at 5 µM associated with N#CC1(c2ccc(NC(=O)c3cccnc3NCc3ccncc3)cc2)CCCC1 [Rivoceranib]
# output 39.4 min

----------
- ASSAY_REMARKS: Phase 1 single-dose plasma pharmacokinetics in subjects with normal hepatic function, mild or moderate hepatic impairment
- Assay type: in vivo, human
- CONDITION_SUMMARY: human, plasma, po, 200 mg, Moderate Hepatic Impairment; 2 h; 200 mg single oral dose; read-out: Plasma concentration, Median
RECORDED_METRIC: concentration at 2 h (ng/mL)
# output: bare number, implied unit ng/mL

# input Identify measured concentration at 2 h associated with N#CC1(c2ccc(NC(=O)c3cccnc3NCc3ccncc3)cc2)CCCC1 [Rivoceranib]
# output 170

----------
- TARGET_DESC: CYP2D6 (Homo sapiens)
- Sequence (P10635 whole entry): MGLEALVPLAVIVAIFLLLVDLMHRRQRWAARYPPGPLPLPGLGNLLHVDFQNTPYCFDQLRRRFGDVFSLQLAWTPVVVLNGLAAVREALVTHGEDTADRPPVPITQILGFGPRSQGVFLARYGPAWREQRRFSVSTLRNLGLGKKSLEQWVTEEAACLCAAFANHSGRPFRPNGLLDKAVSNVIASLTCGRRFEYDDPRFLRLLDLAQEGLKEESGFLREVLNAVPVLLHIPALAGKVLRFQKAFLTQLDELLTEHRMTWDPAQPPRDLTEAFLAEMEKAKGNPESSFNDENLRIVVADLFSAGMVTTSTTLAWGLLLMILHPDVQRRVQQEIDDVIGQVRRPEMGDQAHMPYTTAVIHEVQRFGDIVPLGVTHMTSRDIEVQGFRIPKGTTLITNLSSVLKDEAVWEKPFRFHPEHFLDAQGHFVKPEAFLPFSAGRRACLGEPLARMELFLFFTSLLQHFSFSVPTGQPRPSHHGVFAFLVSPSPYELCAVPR
- ASSAY_REMARKS: In vitro CYP phenotyping and metabolism study, recombinant CYP2D6
- Type: in vitro ADME
- CONDITION_SUMMARY: human; Recombinant CYP2D6; 5 μM; read-out: t½
RECORDED_METRIC: half-life at 5 µM (min)
# output: bare number, implied unit min

# input Identify measured half-life at 5 µM associated with N#CC1(c2ccc(NC(=O)c3cccnc3NCc3ccncc3)cc2)CCCC1 [Rivoceranib]
# output 47.2

Just for reference, patent US20260207572A1 is where these values come from.
